log10(kon): recorded values
# target.or.test.system: T1, human programmed cell death protein 1 (hPD-1) C93S (aa 24-167) (Homo sapiens, UniProt Q15116, C93S)
# T1 construct: made as a fusion with a TEV site and human Fc; the Fc was cut off with TEV protease; source: Expi293F, purified (Protein A, TEV cleavage of Fc, SEC; monomer fractions); not shown: Fc (human), C-terminal, cleaved
# T1 sequence (Q15116 24-167 C93S): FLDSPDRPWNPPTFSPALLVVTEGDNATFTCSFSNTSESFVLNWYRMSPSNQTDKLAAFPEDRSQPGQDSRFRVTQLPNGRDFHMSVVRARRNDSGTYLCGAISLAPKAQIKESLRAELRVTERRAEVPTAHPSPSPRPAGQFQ
# assay.info: SPR; Carterra LSA; Fab from the ammonium sulfate precipitate of the culture supernatant immobilised on a NiHC200M chip; hPD-1 (1-1024 nM) or mPD-1-Fc (4-1024 nM) as analyte, fourfold dilution series, no regeneration; HBS-EP pH 7.4, 25 °C; medians over the spots of a construct, KD = koff/kon
# assay.context: one partner purified
value.kind: log10(kon) (log10 of the value in M⁻¹ s⁻¹)

binder	log10(kon)
toripalimab Fab L.L101W (Fab, V domains shown, as the heavy chain of Sm3; light chain of Sm3 with this change; numbers count from the chain's first residue; source: Brevibacillus, culture supernatant (ammonium sulfate precipitate); not shown: 6xHis, C-terminal, kept; 6xHN, C-terminal, kept) VH: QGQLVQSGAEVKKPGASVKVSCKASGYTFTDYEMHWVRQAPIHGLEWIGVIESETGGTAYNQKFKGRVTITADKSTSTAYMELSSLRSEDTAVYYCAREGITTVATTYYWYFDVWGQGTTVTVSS VL: DVVMTQSPLSLPVTLGQPASISCRSSQSIVHSNGNTYLEWYLQKPGQSPQLLIYKVSNRFSGVPDRFSGSGSGTDFTLKISRVEAEDVGVYYCFQGSHVPWTFGQGTKLEIK	5.13
toripalimab Fab H.F64Y (Fab, V domains shown, heavy chain of Sm3 with this change; numbers count from the chain's first residue; as the light chain of Sm3; source: Brevibacillus, culture supernatant (ammonium sulfate precipitate); not shown: 6xHis, C-terminal, kept; 6xHN, C-terminal, kept) VH: QGQLVQSGAEVKKPGASVKVSCKASGYTFTDYEMHWVRQAPIHGLEWIGVIESETGGTAYNQKYKGRVTITADKSTSTAYMELSSLRSEDTAVYYCAREGITTVATTYYWYFDVWGQGTTVTVSS VL: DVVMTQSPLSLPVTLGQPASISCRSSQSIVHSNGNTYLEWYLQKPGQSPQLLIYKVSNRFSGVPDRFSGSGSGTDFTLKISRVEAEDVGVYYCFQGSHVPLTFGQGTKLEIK	4.53
toripalimab Fab H.E54A (Fab, V domains shown, heavy chain of Sm3 with this change; numbers count from the chain's first residue; as the light chain of Sm3; source: Brevibacillus, culture supernatant (ammonium sulfate precipitate); not shown: 6xHis, C-terminal, kept; 6xHN, C-terminal, kept) VH: QGQLVQSGAEVKKPGASVKVSCKASGYTFTDYEMHWVRQAPIHGLEWIGVIESATGGTAYNQKFKGRVTITADKSTSTAYMELSSLRSEDTAVYYCAREGITTVATTYYWYFDVWGQGTTVTVSS VL: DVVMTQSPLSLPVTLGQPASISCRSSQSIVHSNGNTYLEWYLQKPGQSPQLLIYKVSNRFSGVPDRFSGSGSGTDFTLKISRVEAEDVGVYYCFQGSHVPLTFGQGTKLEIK	4.31
toripalimab Fab H.K63Y (Fab, V domains shown, heavy chain of Sm3 with this change; numbers count from the chain's first residue; as the light chain of Sm3; source: Brevibacillus, culture supernatant (ammonium sulfate precipitate); not shown: 6xHis, C-terminal, kept; 6xHN, C-terminal, kept) VH: QGQLVQSGAEVKKPGASVKVSCKASGYTFTDYEMHWVRQAPIHGLEWIGVIESETGGTAYNQYFKGRVTITADKSTSTAYMELSSLRSEDTAVYYCAREGITTVATTYYWYFDVWGQGTTVTVSS VL: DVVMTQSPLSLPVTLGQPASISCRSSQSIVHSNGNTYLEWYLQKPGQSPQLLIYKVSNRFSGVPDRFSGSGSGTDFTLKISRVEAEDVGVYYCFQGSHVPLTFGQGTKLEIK	4.65
toripalimab Fab L.V56Y (Fab, V domains shown, as the heavy chain of Sm3; light chain of Sm3 with this change; numbers count from the chain's first residue; source: Brevibacillus, culture supernatant (ammonium sulfate precipitate); not shown: 6xHis, C-terminal, kept; 6xHN, C-terminal, kept) VH: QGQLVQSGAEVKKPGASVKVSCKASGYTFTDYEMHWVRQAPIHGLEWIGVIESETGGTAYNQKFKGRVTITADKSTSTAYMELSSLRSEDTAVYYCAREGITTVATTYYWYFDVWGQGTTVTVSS VL: DVVMTQSPLSLPVTLGQPASISCRSSQSIVHSNGNTYLEWYLQKPGQSPQLLIYKYSNRFSGVPDRFSGSGSGTDFTLKISRVEAEDVGVYYCFQGSHVPLTFGQGTKLEIK	3.83
